assay: Plasma pharmacokinetics of phenolic metabolites after oral capsule of (poly)phenol-rich Mediterranean extract mixture; conditions: read-out: Cmax plasma, oral capsule, 0-24 h, n = 6 per time point
Assign t to entries whose Cmax meets or exceeds 20 nM; assign f to the rest.

Example entries begin here.
compound	label
O=C(O)C=Cc1ccc(OS(=O)(=O)O)cc1 [p-coumaric acid 4-O-sulfate]	t
COc1cc(/C=C/C(=O)O)ccc1OS(=O)(=O)O [ferulic acid 4-O-sulfate]	t
O=C(O)C=Cc1ccc(O)c(OS(=O)(=O)O)c1 [caffeic acid 3-O-sulfate]	t

Input line: State whether the measured Cmax reaches 20 nM, counting equality as reaching it, for O=S(=O)(O)Oc1cc(CCO)ccc1O [hydroxytyrosol 3-O-sulfate]
Output line: t

Input line: Reported Cmax at or above 20 nM? O=C1CCC(Cc2ccc(O)c(OS(=O)(=O)O)c2)O1 (centres unmarked)
Output line: f

Input line: Say whether COc1ccc(C2CC(=O)c3c(O)cc(O)cc3O2)cc1O[C@@H]1O[C@H](C(=O)O)[C@@H](O)[C@H](O)[C@H]1O (some centres unmarked) [hesperetin 3′-O-glucuronide] shows Cmax of 20 nM or more.
Output line: f

Input line: In plain terms: is recorded Cmax at least 20 nM for O=C(O)[C@H]1O[C@@H](Oc2cc(O)cc(CCc3ccc(O)cc3)c2)[C@H](O)[C@@H](O)[C@@H]1O [dihydroresveratrol 3-O-glucuronide] ?
Output line: t
